Item-by-item account of Mean tumor cell death (%)
Tested on: Nalm-6 luc
Assay: CAR-T cell killing assay (luciferase viability of tumor cells)
Conditions: E:T ratio 1:3; dose 100 nM
Provide the reading as a plain figure in %.

Consider the worked cases shown below.
CC[C@@H]1CN(C(=O)NCC(F)(F)F)C[C@@H]1c1cnc2cnc3[nH]ccc3n12 ... 25.7
CCS(=O)(=O)N1CC(CC#N)(n2cc(-c3ncnc4[nH]ccc34)cn2)C1 ... 31.1
C[C@@H]1CCN(C(=O)CC#N)C[C@@H]1N(C)c1ncnc2[nH]ccc12 ... 46.8

Lab note: next compound to report on.
So what does the record say about Mean tumor cell death (%) for C[C@@H]1C[C@H]2[C@@H]3CCC4=CC(=O)C=C[C@]4(C)[C@@]3(F)[C@@H](O)C[C@]2(C)[C@@]1(O)C(=O)CO ?
19.94

###

Tested on: CD19 CAR T cells
Test: CAR T cell cytokine production (Luminex) under CD19 K562, KIP-1 or CD2/3/28 stimulation
Conditions: read-out: Suppression of cytokine production, IFNg (IC50); CD3/CD28 stimulation, 72 h
pIC50: −log10 of the molar value.
Quantity measured: pIC50

C[C@H]1C[C@@H]2[C@H]([C@@H](O)C[C@@]3(C)[C@H]2CC[C@]3(O)C(=O)CO)[C@@]2(C)C=CC(=O)C=C12 ... < 5.00

Lab note: next compound to report on.
So what does the record say about pIC50 for Nc1nc2cccc(-c3ccc(CN4CCS(=O)(=O)CC4)cc3)n2n1 ?
< 5.00

###

System: CD19 CAR T cells
Assay: CAR T cell cytokine production (Luminex) under CD19 K562, KIP-1 or CD2/3/28 stimulation
Details: read-out: Suppression of cytokine production, MIP-1a (IC50); K562-CD19 stimulation, 72 h
Quantity measured: IC50

So what does the record say about IC50 for Nc1nc2cccc(-c3ccc(CN4CCS(=O)(=O)CC4)cc3)n2n1 ?
> 10 µM

###

Test system: phospho-STAT panel (pSTAT3/4/5), CD3+ T cells
Experiment: phospho-STAT induction by IL-6, MesoScale Discovery phospho-STAT panel
Assay type: cell-based, human
Details: lower dose titration, CD3+ T cells, IL-6 + drug 3.125 nM; MSD signal (No stim. 123, IL-6 alone 5767)
Item-by-item account of pSTAT3
Give the figure only, with no unit attached.

Consider the worked cases shown below.
C[C@@H]1CCN(C(=O)CC#N)C[C@@H]1N(C)c1ncnc2[nH]ccc12 [tofacitinib] ... 5917
CC[C@@H]1CN(C(=O)NCC(F)(F)F)C[C@@H]1c1cnc2cnc3[nH]ccc3n12 [upadacitinib] ... 4615
CCS(=O)(=O)N1CC(CC#N)(n2cc(-c3ncnc4[nH]ccc34)cn2)C1 [baricitinib] ... 5208

Lab note: next compound to report on.
So what does the record say about pSTAT3 for O=C(Nc1nc2cccc(-c3ccc(CN4CCS(=O)(=O)CC4)cc3)n2n1)C1CC1 [filgotinib] ?
4968

###

Test: in vitro
Conditions: human, CAR-T cells
Quantity measured: viability at 12 day, 10 nM (%)
Provide the reading as a plain figure in %.

So what does the record say about viability at 12 day, 10 nM for CCS(=O)(=O)N1CC(CC#N)(n2cc(-c3ncnc4[nH]ccc34)cn2)C1 ?
71.2

Where do the numbers come from? From patent US12252701B2.
